SYSTEM: Aromatase (Homo sapiens, UniProt P11511)
Sequence (P11511 whole entry): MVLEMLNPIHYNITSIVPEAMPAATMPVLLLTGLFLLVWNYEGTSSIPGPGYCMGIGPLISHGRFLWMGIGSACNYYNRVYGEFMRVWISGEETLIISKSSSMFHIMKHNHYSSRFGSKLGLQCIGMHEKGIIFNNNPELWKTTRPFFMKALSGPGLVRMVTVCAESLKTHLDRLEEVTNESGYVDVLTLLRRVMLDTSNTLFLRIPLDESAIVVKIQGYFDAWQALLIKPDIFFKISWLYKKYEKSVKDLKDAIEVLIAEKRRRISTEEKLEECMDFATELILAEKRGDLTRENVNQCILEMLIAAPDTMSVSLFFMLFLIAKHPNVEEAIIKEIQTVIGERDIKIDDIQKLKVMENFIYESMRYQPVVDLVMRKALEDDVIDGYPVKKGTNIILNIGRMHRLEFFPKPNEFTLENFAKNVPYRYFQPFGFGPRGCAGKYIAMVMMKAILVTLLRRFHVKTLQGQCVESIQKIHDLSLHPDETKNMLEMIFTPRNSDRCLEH
CONDITION_CONTEXT: 0.25 h, read-out: INH
Description: Inhibition of aromatase in human placental microsomes using [1beta-3H]androstenedione as substrate at 2 uM after 15 mins by liquid scintillation counting
Use inhibition at 2 µM to assign classes; range list: low (below 40%), moderate (40% to below 70%), high (70% or more)

Query: Form: Item = CC(=O)O[C@H]1CC[C@H]2[C@@H]3CCC4=C[C@@H](O)CC[C@]4(C)[C@H]3CC[C@]12C ; Class = ?
Reply: low

Query: Lab log: C[C@]12C=CCC[C@@H]1CC[C@@H]1[C@@H]2CC[C@]2(C)C(=O)CC[C@@H]12 — assign inhibition at 2 µM category
Reply: moderate

Query: Quick check: band for C[C@]12CCC=C[C@@H]1CC[C@@H]1[C@@H]2CC[C@]2(C)C(=S)CC[C@@H]12
Reply: moderate

Query: Which inhibition at 2 µM band matches C[C@]12CC[C@@H](O)C=C1CC[C@@H]1[C@@H]2CC[C@]2(C)C(=O)CC[C@@H]12 ?
Reply: moderate

Query: Assign a bin to C[C@]12CCCC=C1CC[C@@H]1[C@@H]2CC[C@]2(C)C(=O)CC[C@@H]12
Reply: high

Query: Kindly identify the class of C[C@]12CC[C@H]3[C@@H](CC[C@@]45O[C@@H]4CCC[C@]35C)[C@@H]1CCC2=O .
Reply: high

Query: Which bin should I file CC(=O)OC1=CCC[C@@]2(C)[C@H]1CC[C@@H]1[C@@H]2CC[C@]2(C)C(=O)CC[C@@H]12 under?
Reply: low

Query: For C[C@]12CC[C@H](O)C=C1CC[C@@H]1[C@@H]2CC[C@]2(C)C(=O)CC[C@@H]12 , which inhibition at 2 µM bin applies?
Reply: high

====

SYSTEM: Aromatase (Homo sapiens, UniProt P11511)
CONDITION_CONTEXT: 0.25 h, read-out: INH
Give measured inhibition at 2 µM for each item. Keep answers brief.
All answers are understood in %, so give the number only.

inhibition at 2 µM reported for this molecule CC(=O)Oc1ccccc1C(=O)OC1=C2CC[C@@H]3[C@H](CC[C@]4(C)C(=O)CC[C@@H]34)[C@@]2(C)CCC1=O : 68.7

inhibition at 2 µM recorded for this molecule, C[C@]12[C@@H](CC[C@@H]3[C@@H]1CC[C@]1(C)C(=O)CC[C@@H]31)CC[C@@H]1O[C@@H]12 , is 40

The molecule C[C@]12CC=CC[C@@H]1CC[C@@H]1[C@@H]2CC[C@]2(C)C(=O)CC[C@@H]12 showed inhibition at 2 µM equal to 72

Lab note: measured inhibition at 2 µM of C[C@]12C[C@H]3O[C@H]3C[C@@H]1CC[C@@H]1[C@@H]2CC[C@]2(C)C(=O)CC[C@@H]12 was 70.7
